# credit: ChEMBL document CHEMBL5724914

assay.protocol: The drug is tested on WLS-006 corresponding to human gut metagenome with ENA study accession number: PRJEB37062 and ENA sample accession number: ERS12561741 for biotransformation under anaerobic condition. The drug concentrations were measured over 9 timepoints collected between 0 and 24 hours of incubation by liquid-chromatography-coupled mass spectrometry (LC–MS); further: call rule not given here
test.settings: 2 µM
property.name: Bacterial Biotransformation

[[record]]
compound = "Nc1c2c(nc3ccccc13)CCCC2"
property_name = "Bacterial Biotransformation"
recorded_value = "Compound NOT metabolized"

[[record]]
compound = "CCCC(=O)Nc1ccc(OCC(O)CNC(C)C)c(C(C)=O)c1 (centres undefined)"
property_name = "Bacterial Biotransformation"
recorded_value = "Compound NOT metabolized"

[[record]]
compound = "CC(C)c1c(C(=O)Nc2ccccc2)c(-c2ccccc2)c(-c2ccc(F)cc2)n1CC[C@@H](O)C[C@@H](O)CC(=O)O"
property_name = "Bacterial Biotransformation"
recorded_value = "Compound metabolized"

[[record]]
compound = "COC1=CC(=O)C[C@@H](C)[C@]12Oc1c(Cl)c(OC)cc(OC)c1C2=O"
property_name = "Bacterial Biotransformation"
recorded_value = "Compound metabolized"

[[record]]
compound = "NC(CO)(CO)CO.O=C(c1ccccc1)c1ccc2n1CCC2C(=O)O (centres undefined)"
property_name = "Bacterial Biotransformation"
recorded_value = "Compound metabolized"


Need Bacterial Biotransformation of CCN(CC)CC#CCOC(=O)C(O)(c1ccccc1)C1CCCCC1.Cl (centres undefined) [OXYBUTYNIN CHLORIDE] , thanks.
Compound metabolized

----------
assay.protocol: The drug is tested on Z-013 corresponding to rabbit gut metagenome with ENA study accession number: PRJEB37062 and ENA sample accession number: ERS12561813 for biotransformation under anaerobic condition. The drug concentrations were measured over 9 timepoints collected between 0 and 24 hours of incubation by liquid-chromatography-coupled mass spectrometry (LC–MS)
test.settings: 2 µM
property.name: Bacterial Biotransformation

The following compounds have reported results that may help.
[[record]]
compound = "C=CCN1CC[C@]23c4c5ccc(O)c4O[C@H]2C(=O)CC[C@@]3(O)[C@H]1C5 [NALOXONE]"
recorded_value = "Compound NOT metabolized"

[[record]]
compound = "CN1CCN(C2=Nc3cc(Cl)ccc3Nc3ccccc32)CC1 [CLOZAPINE]"
recorded_value = "Compound NOT metabolized"

[[record]]
compound = "CC(=O)CC(c1ccccc1)c1c(O)c2ccccc2oc1=O (stereo not given) [WARFARIN]"
recorded_value = "Compound metabolized"

[[record]]
compound = "NS(=O)(=O)c1cc2c(cc1Cl)N=C(CSCc1ccccc1)NS2(=O)=O [BENZTHIAZIDE]"
recorded_value = "Compound NOT metabolized"


Here's the next entry for you.
Need Bacterial Biotransformation of CN1CCc2cccc3c2[C@H]1Cc1ccc(O)c(O)c1-3 [APOMORPHINE] , thanks.
Compound metabolized

----------
test.settings: human gut metagenome, 24 h, 2 µM
property.name: Bacterial Biotransformation

The following molecules have reported results that may help.
[[record]]
molecule = "CC(C)NCC(O)c1ccc(NS(C)(=O)=O)cc1 (stereo not drawn)"
recorded_value = "Compound NOT metabolized"

[[record]]
molecule = "Cc1ccc(-c2cc(C(F)(F)F)nn2-c2ccc(S(N)(=O)=O)cc2)cc1"
recorded_value = "Compound metabolized"

[[record]]
molecule = "CC(CN(C)C)CN1c2ccccc2CCc2ccccc21.O=C(O)/C=C\\C(=O)O (stereo not drawn) [TRIMIPRAMINE MALEATE]"
recorded_value = "Compound NOT metabolized"

[[record]]
molecule = "NC(CO)(CO)CO.O=C(c1ccccc1)c1ccc2n1CCC2C(=O)O (stereo not drawn)"
recorded_value = "Compound metabolized"

[[record]]
molecule = "O=c1[nH]c2ccccc2n1C1CCN(CCCC(c2ccc(F)cc2)c2ccc(F)cc2)CC1 [PIMOZIDE]"
recorded_value = "Compound NOT metabolized"

[[record]]
molecule = "O=P(O)(O)O.c1ccc(CN(CC2=NCCN2)c2ccccc2)cc1 [ANTAZOLINE PHOSPHATE]"
recorded_value = "Compound NOT metabolized"


Need Bacterial Biotransformation of COc1c2occc2cc2ccc(=O)oc12 , thanks.
Compound metabolized

Need Bacterial Biotransformation of COCCc1ccc(OCC(O)CNC(C)C)cc1.COCCc1ccc(OCC(O)CNC(C)C)cc1.O=C(O)C(O)C(O)C(=O)O (stereo not drawn) [METOPROLOL TARTRATE] , thanks.
Compound NOT metabolized
